# System: enzyme (SP-Sepharose HP fraction) derived from Sphingobacterium sp. strain FERM BP-8124
# Type: biochemical
# MEASUREMENT_CONDITIONS: Table 15-2; carboxy 100 mM, L-Gln 150 mM, 0.33 units, pH 9.0, 25° C., 1.5 hours; 0.1% Tween-80 with L-Tyr-OMe
# Method: The following procedure after centrifugal separation was carried out either on ice or at 4° C. […]
Residues, ends and D or L forms follow the SMILES beside them.
Please respond with reported Produced peptide for every item in the list.
Quick note: give the figure in mM, leave out the unit.

Lookup result for NC(=O)CC[C@H](NC(=O)[C@@H](N)CCC(N)=O)C(=O)O [L-Gln-L-Gln] (H-Gln-Gln-OH) ; measured Produced peptide: 0.1

Looking up CC[C@H](C)[C@H](N)C(=O)N[C@@H](CCC(N)=O)C(=O)O [L-Ile-L-Gln] (H-Ile-Gln-OH) , I found its Produced peptide recorded as 6.4

// sample NC(=O)CC[C@H](NC(=O)[C@@H](N)Cc1ccc(O)cc1)C(=O)O [L-Tyr-L-Gln] (H-Tyr-Gln-OH) , its Produced peptide was 0.6

Kindly note the recorded Produced peptide for NCC(=O)N[C@@H](CCC(N)=O)C(=O)O [Gly-L-Gln] (H-Gly-Gln-OH) , which is 61.1

According to the records, this compound NC(=O)CC[C@H](NC(=O)[C@@H](N)Cc1ccccc1)C(=O)O [L-Phe-L-Gln] displays Produced peptide of 0.8

// NC(=O)CC[C@H](NC(=O)[C@@H]1CCCN1)C(=O)O [L-Pro-L-Gln] (H-Pro-Gln-OH) : Produced peptide value = 1.8

Query C[C@@H](O)[C@H](N)C(=O)N[C@@H](CCC(N)=O)C(=O)O [L-Thr-L-Gln] (H-Thr-Gln-OH) yields Produced peptide of 36.1

GET /value?item= CSCC[C@H](N)C(=O)N[C@@H](CCC(N)=O)C(=O)O [L-Met-L-Gln] (H-Met-Gln-OH) &field=Produced peptide returns 32.6

Attribution: patent US20050032187A1
